System: Plasmodium berghei
Experiment: Screen against P. berghei liver stage (PbLuc), transformed with Luciferase, at 2uM
Type: functional, HepG2
Conditions: tested at 2 uM
Screen size: about 68,000 compounds; about 2,700 (4%) showed an effect of 50% or more. Many of the other results were omitted from the sample, so strong results are more common in it than they were.
parameter-measured: INHIBITION (%)
Unit % implied. Number only.

Please review the following examples before continuing.
# molecule, INHIBITION [%]
measured = [
    ("CCN1CCCC12CCCN(c1ncccn1)C2 (centres undefined)", -23.31),
    ("COC(=O)c1cnc2c(c(C)nn2C)c1OC", -8.44),
    ("COc1ccc(OC2CCN(C(=O)CCc3n[nH]c(C)n3)CC2)cc1", -2.77),
    ("C[S+]([O-])c1nncn1CC(=O)c1ccc2c(c1)CCC2 (centres undefined)", 61.82),
    ("COCCN1CCN(Cc2csc(-c3cnn(C)c3)n2)CC1", -20.82),
    ("CN1CCC(N(Cc2ccncc2)Cc2nc3c(s2)CCCC3)CC1", -1.15),
]

Prompt: Provide measured INHIBITION value, entry: O=C(CN1CC(c2ccccc2)CC1=O)N1CCC(c2ncc[nH]2)CC1 (centres undefined)
Response: -63.6

Prompt: Given the molecule Cn1cc(-c2nc(CN3CCN(CCO)CC3)cs2)cn1 , write its reported INHIBITION.
Response: 53.03

Prompt: Give INHIBITION for CCOc1c(F)cccc1C(=O)N(c1cccnc1)C(C)C
Response: -56.64

Prompt: Give the reported value of INHIBITION for this record: CCC1CN(C(=O)COc2ccc(C(=O)NC3CC3)cc2)CCO1 (centres undefined)
Response: 32.93

Prompt: Determine from records and report INHIBITION for COc1ccc(C2=CCN(C(=O)C3CCCN(C(N)=O)C3)CC2)cc1 (centres undefined)
Response: -11.91

Prompt: Return value of INHIBITION for input COCCNC(=O)[C@H]1C[C@@](CC(C)C)(C(=O)O)N(C)[C@H]1c1cccnc1 , no commentary.
Response: 20.32

Prompt: Assign INHIBITION to the following record: CC(NC(=O)N1CCCN(CC(F)F)CC1)c1ccco1 (centres undefined)
Response: 1.06

Prompt: # return recorded INHIBITION for input COCCN1CCC2(CC1)CC(c1cccnc1)C(=O)N2C (centres undefined)
Response: 11.98

Prompt: # return recorded INHIBITION for entry Cc1nnc2n1CCN(Cc1csc(-c3cnn(C)c3)n1)C2
Response: 57.34

* * *

Tested on: Plasmodium berghei
Test: Screen against P. berghei liver stage (PbLuc), transformed with Luciferase, at 2uM
Assay type: functional, HepG2
Conditions: tested at 2 uM
Out of some 68,000 compounds screened, about 2,700 (4%) showed an effect of 50% or more. The sample as a whole holds a higher share of strong results than the screen did.
Consider the cut-off 30%. If the recorded INHIBITION is strictly smaller, the label is yes; if not, the label is no.

A selection of reference data follows.
# molecule, category-label
measured = [
    ("CC(NC(=O)CCCc1nc(C(C)(C)C)no1)c1nnc2n1CCC2 (stereo not drawn)", "yes"),
    ("Cc1nc2ccccc2n1CCNCc1cccc(C#N)c1", "yes"),
    ("COc1ccc(CNCCn2c(C)nc3ccccc32)cc1O", "yes"),
    ("Cc1cc(C)n(C2CN(Cc3noc(C4CC4)n3)C2)n1", "yes"),
    ("CCC(=O)N1CCN(C(=O)CCn2cc(Cl)cn2)[C@H]2CS(=O)(=O)C[C@H]21", "no"),
    ("CCc1nccc(CN2CCC(CNC(=O)c3occc3C)C2)n1 (stereo not drawn)", "yes"),
]

Prompt: Please let me know if Cc1cc(C)n(C2CN(Cc3noc(-c4ccccc4)n3)C2)n1 shows INHIBITION below 30%.
Response: yes

Prompt: I'd appreciate it if you could check whether CC(NC(=O)CCc1nc(C(C)(C)C)no1)c1nnc2n1CCC2 (stereo not drawn) has INHIBITION smaller than 30%.
Response: no

Prompt: Strictly below 30%: is that where INHIBITION of CC(C)c1noc(CCC(=O)NC(C)c2nnc3n2CCC3)n1 (stereo not drawn) sits?
Response: no

Prompt: In the record for COCCc1noc(CN2CCOC(Cn3nc(C)cc3C)C2)n1 (stereo not drawn) , is INHIBITION less than 30%?
Response: yes

Prompt: Input Cc1cnn(CCC(=O)N2CCN(C(=O)C3CC3)[C@@H]3CS(=O)(=O)C[C@@H]32)c1 ; condition: INHIBITION strictly below 30%. Does it hold?
Response: no

Prompt: Regarding CCCN1CCN(Cc2cccc(OC)c2)[C@H]2CS(=O)(=O)C[C@H]21 , kindly confirm whether its INHIBITION is beneath 30%.
Response: no

Prompt: Is it true that INHIBITION reported for CN(C)C(=O)CN1CCC2(COCc3cnc(-c4cccnc4)nc32)C1 (stereo not drawn) is less than 30%?
Response: yes

Prompt: Report whether reported INHIBITION is lower than 30% (strictly) for Cc1ccc(-c2nc(CN3CC(n4nc(C)cc4C)C3)no2)cc1
Response: no

* * *

Test system: Plasmodium berghei
Test: Screen against P. berghei liver stage (PbLuc), transformed with Luciferase, at 2uM
Format: functional, HepG2
Settings: tested at 2 uM
In all, about 68,000 compounds went through this assay and about 2,700 (4%) showed an effect of 50% or more. The list comes from a sample in which strong results are over-represented; it also holds close analogues and randomly drawn compounds.
parameter-measured: INHIBITION (%)
# unit: % | format: bare number

// known answers, use as guide
# compound, unit-of-measure, endpoint-value
rows = [
    ("COC[C@@H]1CCC[C@]12CN(CCc1ccccc1)CCO2", "%", -20.67),
    ("O=C(Nc1nccs1)N(CCO)Cc1ccsc1", "%", -14.3),
    ("O=C(Nc1ccccn1)N(CCO)Cc1ccsc1", "%", 58.49),
    ("Fc1ccc(CN2CCC3(CCCN(c4nncs4)C3)C2)cc1 (stereo unspecified)", "%", 3),
]

Now let's try a different one.
Prompt: Give recorded INHIBITION. CS(=O)(=O)N1CCN(C(=O)c2cc(-c3cccs3)cs2)CC1
Response: -23.8

* * *

Test system: Plasmodium berghei
Assay: Screen against P. berghei liver stage (PbLuc), transformed with Luciferase, at 2uM
Assay type: functional, HepG2
Details: tested at 2 uM
Among all 68,000 compounds or so, about 2,700 (4%) showed an effect of 50% or more. The entries come from a sample that favours strong results as a whole.
INHIBITION below 20% gives f; INHIBITION at or above it gives t.

Answered examples (4):
# compound, category-label
data = [
    ("COc1ccc(CC(=O)N2CCCC(c3nncn3C)C2)cc1 (configuration not stated)", "f"),
    ("CCN(C)S(=O)(=O)N(CC)Cc1cccc(-c2ccncc2)c1", "t"),
    ("CCn1cnnc1C1CCN(C(=O)COc2ccccc2OC)CC1", "f"),
    ("Cn1cc(CN2CC3(CCN(C(=O)c4cscn4)C3)C2)cn1", "f"),
]

Prompt: Hi team, for CCn1cnnc1C1CCN(C(=O)c2cc(F)ccc2OC)CC1 , is the recorded INHIBITION at or above 20%?
Response: t

Prompt: Confirm if INHIBITION reported for the compound COc1ccc(CC(=O)N2CCC(c3nncn3C)CC2)cc1F is 20% or above.
Response: t

Prompt: Is INHIBITION for CC(=O)N1CCc2c(nc(N(C)C)nc2N(C)CC2CCCO2)C1 (configuration not stated) at or above 20%?
Response: f

Prompt: Check if INHIBITION >= 20% (inclusive). Item: O=C(c1cc(Cl)c[nH]1)N1CCN(CCc2ccccn2)CC1
Response: f

Prompt: Decide: is the reported value of INHIBITION for Cc1ccc(C(=O)CCC(=O)N2CCC(c3nncn3C)CC2)cc1 equal to or greater than 20%?
Response: t

Prompt: Exam item: decide whether the reported INHIBITION for N#Cc1ncn(CCC(=O)Nc2ccc(F)c(F)c2)n1 is at least 20%.
Response: t

Prompt: Given CCN(Cc1cccc(-c2ccncc2)c1)S(C)(=O)=O , state whether its INHIBITION is at least 20%.
Response: t

* * *

Tested on: Plasmodium berghei
Assay: Screen against P. berghei liver stage (PbLuc), transformed with Luciferase, at 2uM
Format: functional, HepG2
Conditions: tested at 2 uM
Out of some 68,000 compounds screened, about 2,700 (4%) showed an effect of 50% or more. The sample as a whole holds a higher share of strong results than the screen did.
parameter-measured: INHIBITION
// unit must come after the numeric part

Below are worked cases with known answers.
# molecule, endpoint-value
rows = [
    ("O=C(NCCc1ccccc1)c1cn(CCNCc2cccnc2)nn1", "53.12%"),
    ("O=C(NCc1cccnc1)c1cn(CCc2ccccc2)nn1", "17.19%"),
    ("Cc1c(NC(=O)NC2CCCC2)cccc1C(=O)N1CCSCC1", "-12.09%"),
]

Prompt: # lookup: Plasmodium berghei INHIBITION, key = O=C(Nc1ccccc1C(=O)N1CCCC1)NC1CCOCC1
Response: 70.83%

Prompt: Report INHIBITION on Plasmodium berghei for this entry: CC(Cn1cc(Br)cn1)C(=O)Nc1ccc(Cl)cn1 (stereo unspecified)
Response: 29.12%

Prompt: # return INHIBITION for Cc1c(NC(=O)NC2CCOCC2)cccc1C(=O)N1CCCC1 , test system: Plasmodium berghei
Response: 48.39%
